system: RAW-Dual (murine macrophage reporter line); experiment: IRF reporter (Lucia luciferase) activity fold change vs agonist alone; higher = enhanced IRF activity; conditions: modulator concentration 10 µM; agonist: 3'3'-cGAMP 10 ug/mL
# label = MET if IRF reporter >= 0.9 else NOT MET

O=C(Cc1ccc(NC(=O)c2ccc(OC(F)(F)F)cc2)cc1)NCC(F)(F)F
MET
CC1CC(C)CN(C(=O)CSc2nnc(Cc3ccccc3)o2)C1 (stereo not drawn)
MET
O=c1cccnn1CC1CN(c2ncc(Br)cn2)C1
MET
O=S(=O)(Cc1cccc(F)c1)N1C2CCC1CC(Oc1cccnc1)C2 (stereo not drawn)
MET
O=C(NC1CCN(c2ccc(C(F)(F)F)cn2)C1)c1nc2ccccc2s1 (stereo not drawn)
MET

Is it the case that COc1ccc(C)c2sc(NC(=O)c3ccco3)nc12 has IRF reporter reaching or exceeding 0.9?
NOT MET

Is it the case that CC(C)c1ccccc1NS(=O)(=O)c1ccccc1 has IRF reporter reaching or exceeding 0.9?
MET

---

test system: RAW-Dual (murine macrophage reporter line); assay: NF-kB reporter (SEAP) activity fold change vs agonist alone; higher = enhanced NF-kB activity; conditions: modulator concentration 10 µM; agonist: LPS 0.1 ug/mL
# label = YES if NF-kB reporter >= 1 else NO

Is it the case that CC[C@H](C)C(=O)O[C@H]1C[C@@H](C)C=C2C=C[C@H](C)[C@H](CC[C@@H]3C[C@@H](O)CC(=O)O3)[C@H]21 has NF-kB reporter reaching or exceeding 1?
YES

Is it the case that CCOC(=O)C1=C(C)OC(N)=C(C#N)C1c1ccc(O)c(OCC)c1 (centres undefined) has NF-kB reporter reaching or exceeding 1?
YES

Is it the case that Cc1ccc(S(=O)(=O)N2CCN(C(C)C)CC2)cc1 has NF-kB reporter reaching or exceeding 1?
NO

---

test system: RAW-Dual (murine macrophage reporter line); assay: NF-kB reporter (SEAP) activity fold change vs agonist alone; higher = enhanced NF-kB activity; details: modulator concentration 10 µM; agonist: MPLA […]
Quick reference: NF-kB reporter of the listed items.
Respond numerically, and do not add a unit to the figure.

Check out these entries, answers already filled in.
CC(C)OC(=O)c1c(NC(=O)C2CC=CCC2C(=O)O)sc2c1CCCC2 (configuration not stated)
0.901
COC(=O)C1=CN(CC2CCCO2)C=C(C(=O)OC)C1c1ccc(Cl)cc1 (configuration not stated)
1.44
CN1C(CC(=O)c2ccccc2)CCCC1CC(O)c1ccccc1.Cl (configuration not stated)
0.964
COC(=O)C1C(=O)C(=CNc2ccccc2O)C(=O)CC1(C)C (configuration not stated)
2.44
CCCCCCCCCCCC(CC1OC(=O)C1CCCCCC)OC(=O)C(CC(C)C)NC=O (configuration not stated)
0.364
CNC(=O)c1cc(Oc2ccc(NC(=O)Nc3ccc(Cl)c(C(F)(F)F)c3)cc2)ccn1.Cc1ccc(S(=O)(=O)O)cc1
0.791
COc1ccc(-c2cc(C(F)F)nn2-c2ccc(S(N)(=O)=O)cc2)cc1F
0.993
CCCc1nc2ccccc2n1C(=O)C=CC(=O)O
1.13
CC(=O)Nc1ccc(NC(=O)COc2ccc(Br)c(C)c2)cc1
0.95
Cc1sc(NC(=O)c2cc(Cl)ccc2[N+](=O)[O-])nc1-c1ccccc1
0.951

As a next step, examine the compound that follows.
Give the measured NF-kB reporter of O=C(/C=C/C=C/c1ccc2c(c1)OCO2)N1CCCCC1 .
1.17
